Recorded EC50 for the following compounds
biological target: LXRβ (Homo sapiens, UniProt P55055); construct: Co-transfection expression plasmids, comprising full-length LXRα (pCMX-h LXRα[…] or LXRβ (pCMX-hLXRβ)); assay: Co-transfection assay (LXRE luciferase reporter), LXRβ; settings: CV-1 cells transfected with pCMX-hLXRβ and LXREx1-Tk-Luciferase; 20 hours incubation
readout_type: EC50

{"compound": "Cc1nc(-c2cc(-c3cccc(S(C)(=O)=O)c3)ccc2-n2cc(C(F)(F)F)nc2C)c(-c2ccc(OC3CCCC3)nc2)o1 [Example 410]", "test_system": "LXRβ (Homo sapiens, UniProt P55055)", "readout_type": "EC50", "result": "204 nM"}
{"compound": "Cc1nc(C(F)(F)F)cn1-c1ccc(-c2cc(F)c(CO)c(S(C)(=O)=O)c2)cc1-n1nncc1-c1ccc(OC(F)(F)F)cc1 [Example 211]", "test_system": "LXRβ (Homo sapiens, UniProt P55055)", "readout_type": "EC50", "result": "127 nM"}
{"compound": "Cc1nc(C(F)(F)F)cn1-c1ccc(-c2cccc(S(C)(=O)=O)c2)cc1-c1nc(C(F)(F)F)cn1-c1ccc(Cl)nc1 [Example 642]", "test_system": "LXRβ (Homo sapiens, UniProt P55055)", "readout_type": "EC50", "result": "1150 nM"}
{"compound": "CCC(F)(F)c1cn(-c2ccc(-c3cccc(S(=O)(=O)NC)c3)cc2-n2nncc2-c2ccc(OC(F)(F)F)cc2)c(C)n1 [Example 185]", "test_system": "LXRβ (Homo sapiens, UniProt P55055)", "readout_type": "EC50", "result": "297 nM"}
{"compound": "CCCc1nc(-c2ccc(OC(F)(F)F)cc2)c(-c2cc(-c3cccc(S(C)(=O)=O)c3)ccc2-n2cc(C(F)(F)F)nc2C)o1 [Example 602]", "test_system": "LXRβ (Homo sapiens, UniProt P55055)", "readout_type": "EC50", "result": "25 nM"}
{"compound": "Cc1nc(C(F)(F)F)cn1-c1ccc(-c2ccc(CNS(C)(=O)=O)c(S(C)(=O)=O)c2)cc1-n1nncc1-c1ccc(OC(F)(F)F)cc1 [Example 87]", "test_system": "LXRβ (Homo sapiens, UniProt P55055)", "readout_type": "EC50", "result": "662 nM"}
{"compound": "Cc1nc(-c2cc(-c3cccc(S(C)(=O)=O)c3)ccc2-n2cc(C(F)(F)F)nc2C)c(-c2cccnc2Cl)o1 [Example 552]", "test_system": "LXRβ (Homo sapiens, UniProt P55055)", "readout_type": "EC50", "result": "913 nM"}
{"compound": "Cc1nc(C(F)(F)F)cn1-c1ccc(-c2cc(Cl)c(CO)c(S(C)(=O)=O)c2)cc1-n1nncc1-c1ccc(Cl)cc1 [Example 70]", "test_system": "LXRβ (Homo sapiens, UniProt P55055)", "readout_type": "EC50", "result": "361 nM"}

====

target: LXRβ (Homo sapiens, UniProt P55055); construct: Co-transfection expression plasmids, comprising full-length LXRα (pCMX-h LXRα[…] or LXRβ (pCMX-hLXRβ)); expressed in transfected cells; host or cells: CV-1 African Green Monkey Kidney Cells; experiment: Co-transfection assay (LXRE luciferase reporter), LXRβ; type: cell-based; settings: CV-1 cells transfected with pCMX-hLXRβ and LXREx1-Tk-Luciferase; 20 hours incubation
pEC50: −log10 of the molar value.
Recorded pEC50 for the following molecules

{"molecule": "Cc1nc(C(F)(F)F)cn1-c1ccc(-c2cccc(S(C)(=O)=O)c2)cc1-n1nncc1-c1ccc(C(F)F)cc1 [Example 5]", "pEC50": 6.59}
{"molecule": "Cc1nc(-c2cc(-c3cccc(S(C)(=O)=O)c3)ccc2-n2cc(C(F)(F)F)nc2C)c(-c2cc(F)cc(Cl)c2)o1 [Example 449]", "pEC50": 6.74}
{"molecule": "Cc1nc(C(F)(F)F)cn1-c1ccc(-c2ccc(CO)c(S(C)(=O)=O)c2)cc1-n1nncc1-c1ccc(OC(F)(F)F)cc1 [Example 90]", "pEC50": 6.75}
{"molecule": "Cc1nc(-c2cc(-c3cccc(S(C)(=O)=O)c3)ccc2-n2cc(Cl)nc2C)c(-c2ccc3c(c2)OC(F)(F)O3)o1 [Example 423]", "pEC50": 7.21}

====

Target: LXRβ (Homo sapiens, UniProt P55055)
Construct: Co-transfection expression plasmids, comprising full-length LXRα (pCMX-h LXRα[…] or LXRβ (pCMX-hLXRβ)); expressed in transfected cells; host or cells: CV-1 African Green Monkey Kidney Cells
Sequence (P55055 1-460): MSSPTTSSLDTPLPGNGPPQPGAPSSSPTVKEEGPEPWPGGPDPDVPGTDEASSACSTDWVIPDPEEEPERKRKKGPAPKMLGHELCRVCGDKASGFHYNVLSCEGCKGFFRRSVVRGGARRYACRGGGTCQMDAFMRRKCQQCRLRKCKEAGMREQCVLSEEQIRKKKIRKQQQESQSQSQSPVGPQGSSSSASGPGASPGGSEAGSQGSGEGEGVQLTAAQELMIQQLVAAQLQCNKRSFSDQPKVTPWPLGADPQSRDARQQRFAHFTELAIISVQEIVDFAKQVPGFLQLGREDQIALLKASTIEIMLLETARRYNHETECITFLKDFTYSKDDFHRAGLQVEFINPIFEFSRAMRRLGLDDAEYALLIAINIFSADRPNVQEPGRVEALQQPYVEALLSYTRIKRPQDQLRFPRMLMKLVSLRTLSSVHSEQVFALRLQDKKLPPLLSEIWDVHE
Sequence (P19793 1-462 partner): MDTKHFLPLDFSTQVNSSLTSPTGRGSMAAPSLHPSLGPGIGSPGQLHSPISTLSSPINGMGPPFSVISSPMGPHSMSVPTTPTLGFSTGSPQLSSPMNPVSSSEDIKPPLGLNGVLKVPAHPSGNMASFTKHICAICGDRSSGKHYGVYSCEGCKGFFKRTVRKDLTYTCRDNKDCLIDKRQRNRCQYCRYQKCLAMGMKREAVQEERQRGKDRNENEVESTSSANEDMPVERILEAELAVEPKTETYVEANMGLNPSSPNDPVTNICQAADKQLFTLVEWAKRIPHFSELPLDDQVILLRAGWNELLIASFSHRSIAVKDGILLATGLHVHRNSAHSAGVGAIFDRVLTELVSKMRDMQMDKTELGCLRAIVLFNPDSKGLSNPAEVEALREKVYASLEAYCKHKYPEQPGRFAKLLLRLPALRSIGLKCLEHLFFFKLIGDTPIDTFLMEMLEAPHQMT
Assay: Co-transfection assay (LXRE luciferase reporter), LXRβ
Type: cell-based
Conditions: LXRβ co-transfection; relative to high control 1-(2,4-difluorobenzyl)-2-oxo-6-(4-phenoxyphenyl)-4-(trifluoromethyl)-1,2-dihydropyridine-3-carbonitrile; read-out: % Efficacy
Short version: Emax at least 80% is fulfilled, less is not fulfilled.

{"molecular_string": "Cc1nc(C(F)(F)F)cn1-c1ccc(-c2cccc(S(C)(=O)=O)c2)cc1-c1oc(CCO)nc1-c1ccc(Cl)cc1", "category": "not fulfilled"}
{"molecular_string": "CNS(=O)(=O)c1cccc(-c2ccc(-n3cc(C(F)(F)F)nc3C)c(-c3nc(C)oc3-c3ccc(OC(F)F)cc3)c2)c1", "category": "fulfilled"}
{"molecular_string": "Cc1nc(-c2cc(-c3cc(F)c(CO)c(S(C)(=O)=O)c3)ccc2-n2cc(C(F)(F)F)nc2C)c(-c2ccc(C)c(F)c2)o1", "category": "not fulfilled"}
{"molecular_string": "Cc1nc(-c2cc(-c3cccc(S(C)(=O)=O)c3)ccc2-n2cc(C(F)(F)F)nc2C)c(-c2ccc3ccccc3c2)o1", "category": "not fulfilled"}
{"molecular_string": "Cc1nc(C(F)(F)F)c(Cl)n1-c1ccc(-c2cccc(S(C)(=O)=O)c2)cc1-n1nncc1-c1ccc(OC(F)(F)F)cc1", "category": "fulfilled"}
{"molecular_string": "Cc1nc(C(F)(F)F)cn1-c1ccc(-c2cccc(S(C)(=O)=O)c2)cc1-c1ocnc1Cc1ccc(OC(F)(F)F)cc1", "category": "not fulfilled"}
{"molecular_string": "Cc1nc(-c2cc(-c3cc(F)c(CO)c(S(C)(=O)=O)c3)ccc2-n2cc(C(F)(F)F)nc2C)c(-c2ccc(Cl)nc2Cl)o1", "category": "fulfilled"}
{"molecular_string": "Cc1nc(-c2cc(-c3cccc(S(C)(=O)=O)c3)ccc2-n2cc(C(F)(F)F)nc2C)c(-c2ccc(OC(F)(F)F)cc2)o1", "category": "fulfilled"}
{"molecular_string": "Cc1nc(C(F)(F)F)cn1-c1ccc(-c2cccc(S(N)(=O)=O)c2)cc1-n1nncc1-c1ccc(OC(F)(F)F)cc1", "category": "fulfilled"}
{"molecular_string": "Cc1nc(C(F)(F)F)cn1-c1ccc(-c2ccc(CO)c(S(C)(=O)=O)c2)cc1-c1nc(CC(C)C)oc1-c1ccc(OC(F)(F)F)cc1", "category": "not fulfilled"}
